# Experimental Details: PSAC antagonists in infected red cells, primary screen, cell-based, P. falciparum Indochina, OD700, 1 h (AID 1154)
# Condition Description: P. falciparum Indochina infected RBC osmotic lysis, called active from +8 up or from −8 down
Activity calls are given as the source filed them.
In this exercise, the only acceptable responses are True = active, False = inactive

COCCCNC(=O)[C@@]1(C)c2ccccc2C(=O)N(Cc2cc(F)cc(C(F)(F)F)c2)[C@H]1c1ccc(CO)cc1
False
CC(C)C(=C=CC[C@H](O)c1ccc(OCCO)cc1)C[C@H](O)COCc1ccccc1
True
C=CCNC(=O)[C@H]1[C@@H]2C(=O)O[C@@H](c3ccccc3)[C@@H](c3ccccc3)N2[C@@H](c2ccccc2OCCO)[C@]12C(=O)N(C(=O)OCCOC)c1ccc(C#CCCO)cc12
False
COC(=O)C(CC#Cc1ccc2c(c1)[C@]1(C(=O)N2)[C@H](C(N)=O)[C@H]2C(=O)O[C@H](c3ccccc3)[C@H](c3ccccc3)N2[C@@H]1c1ccc(O)cc1)C(=O)OC
True

Exercise: Hi, do you know how C[N+](C)(C)CCCC[C@@H]1NC(=O)[C@H]2C[C@@H](C(=O)NCCCCCN)[C@@H](c3cccc(OCCO)c3)N2C1=O came out in this test?
Key: False

Exercise: Hi, do you know how O=c1n(-c2ccccc2)c(=O)n2n1CC(COc1ccccc1)=C1[C@@H](CCc3ccccc3)OB(O)C[C@@H]12 came out in this test?
Key: False

Exercise: Hi, do you know how COC(=O)C(CC#Cc1ccc2c(c1)[C@]1(C(=O)N2)[C@H](c2ccccc2OCCO)N2[C@H](c3ccccc3)[C@H](c3ccccc3)OC(=O)[C@H]2[C@@H]1C(=O)N1CCCCCCC1)C(=O)OC came out in this test?
Key: False

Exercise: Hi, do you know how CN1C=C(C(=O)OCCS(C)(=O)=O)C(C(=O)OCCS(C)(=O)=O)=CC(CCCO)=CC1c1cccs1 (centres undefined) came out in this test?
Key: False

Exercise: Hi, do you know how COC(=O)C1=CC(CCCO)=CC(C2CC2)N(Cc2cc3c(cc2Br)OCO3)C=C1C(=O)OC (centres undefined) came out in this test?
Key: False

---

# Experimental Details: cytotoxicity in OVCAR8 ovarian cancer cells, dose response, PAX8 project, cell-based, plate reader, dry powder samples (AID 743197)
# Condition Description: series mostly up to 35 µM
Potency and affinity values are given separately. The source made the active and inactive calls. No rule for the calls is given here.
Readout Name: outcome

COc1ccc(-c2cn(CC[C@H]3CC[C@H](NC(=O)Cc4ccccn4)[C@@H](CO)O3)nn2)cc1
inactive
C[C@@H]1CCCCO[C@@H](CN(C)C(=O)Nc2ccc(C(F)(F)F)cc2)[C@H](C)CN([C@@H](C)CO)C(=O)c2cc(NC(=O)Nc3ccc(C(F)(F)F)cc3)ccc2O1
inactive
Cc1ccc(S(=O)(=O)Nc2ccc3c(c2)C(=O)N([C@H](C)CO)C[C@@H](C)[C@@H](CN(C)Cc2ccc4c(c2)OCO4)OCCCC[C@@H](C)O3)cc1
inactive
CCCC#Cc1ccc([C@@H]2[C@H](CO)N3CCCCN(S(=O)(=O)Cc4ccccc4)C[C@@H]23)cc1
inactive
Cc1ccc(S(=O)(=O)N(C)C[C@H]2Oc3c(NC(=O)Nc4ccc(F)cc4)cccc3C(=O)N([C@@H](C)CO)C[C@H]2C)cc1
inactive

Exercise: State its outcome for this compound: C[C@@H]1CCCCO[C@@H](CN(C)Cc2ccc(C(F)(F)F)cc2)[C@H](C)CN([C@H](C)CO)C(=O)c2cc(NC(=O)c3ccccc3)ccc2O1
Key: inactive

Exercise: State its outcome for this compound: C[C@@H]1CN([C@H](C)CO)C(=O)c2cc(NC(=O)Nc3ccc(C(F)(F)F)cc3)ccc2O[C@@H](C)CCCCO[C@H]1CN(C)Cc1ccc(Cl)c(Cl)c1
Key: inactive

Exercise: State its outcome for this compound: C[C@@H]1CCCCO[C@H](CN(C)CC2CCCCC2)[C@H](C)CN([C@@H](C)CO)C(=O)c2cc(NS(=O)(=O)c3ccc(Cl)cc3)ccc2O1
Key: inactive
